So I've got a bunch of molecules here, and I need their IC50 values.
- TARGET_ENTITY: C-C chemokine receptor type 5 (Homo sapiens, UniProt P51681)
- Sequence (P51681 whole entry): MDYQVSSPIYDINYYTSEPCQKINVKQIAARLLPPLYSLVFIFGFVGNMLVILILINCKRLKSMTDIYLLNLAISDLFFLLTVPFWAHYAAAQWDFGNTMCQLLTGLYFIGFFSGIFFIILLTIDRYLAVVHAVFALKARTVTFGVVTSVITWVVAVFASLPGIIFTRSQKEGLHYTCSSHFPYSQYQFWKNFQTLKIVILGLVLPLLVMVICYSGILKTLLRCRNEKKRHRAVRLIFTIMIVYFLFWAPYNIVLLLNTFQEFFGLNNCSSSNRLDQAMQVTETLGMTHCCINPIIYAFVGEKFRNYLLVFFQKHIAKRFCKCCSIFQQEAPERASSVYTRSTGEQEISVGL
- PROTOCOL_DETAILS: Inhibitory concentration against human C-C chemokine receptor type 5 in CHO cells with [125I]-MIP-1 alpha radioligand

[Q] Any idea what its IC50 is? The molecule is CN(CC(C)(CCN1CCC2C(CCN2C(=O)OCc2ccc([N+](=O)[O-])cc2)C1)c1ccccc1)S(=O)(=O)c1ccccc1 (single isomer, unassigned; isomer A)
[A] 0.021 µM

[Q] Any idea what its IC50 is? The molecule is CN(C[C@@](C)(CCN1CCC2NCCC2C1)c1ccccc1)S(=O)(=O)c1ccccc1 (mixture of isomers)
[A] > 2 µM

[Q] Any idea what its IC50 is? The molecule is CN(C[C@@](C)(CCN1CCC2C(CCN2C(=O)OCc2ccccc2)C1)c1ccccc1)S(=O)(=O)c1ccccc1 (mixture of isomers)
[A] 0.009 µM

[Q] Any idea what its IC50 is? The molecule is CN(C[C@@](C)(CCN1CCC2C(CCC(=O)N2Cc2ccc([N+](=O)[O-])cc2)C1)c1ccccc1)S(=O)(=O)c1ccccc1 (mixture of isomers)
[A] 0.0053 µM

[Q] Any idea what its IC50 is? The molecule is CN(C[C@@](C)(CCN1CCC2C(CCN2C(=O)OC(C)(C)C)C1)c1ccccc1)S(=O)(=O)c1ccccc1 (mixture of isomers)
[A] 0.011 µM

[Q] Any idea what its IC50 is? The molecule is CN(CC(C)(CCN1CCC2C(CCN2C(=O)OC(C)(C)C)C1)c1ccccc1)S(=O)(=O)c1ccccc1 (single isomer, unassigned; isomer A)
[A] > 2 µM
